system: Fibroblast; experiment: Multiplex assay against human fibroblast; type: toxicity, cell-based; details: 12 h, 1 µM, compound concentration 1 uM, replicate 1
property name: Population Normal (%)
Numbers only, in %.

Reference set, count: 2
{"compound": "Cc1c(P(=S)(c2ccccc2)c2ccccc2)n2ccccc2[n+]1C/C=C/c1ccccc1.[Br-]", "numeric value": 92}
{"compound": "Cl.NC[C@@H]1O[C@H](C23CC4CC(CC(C4)C2)C3)Cc2c1ccc(O)c2O", "numeric value": 87}

Here's the next entry for you.
// lookup Population Normal (%) for CC(Cc1ccc(O)c(O)c1)C(C)Cc1ccc(O)c(O)c1 (stereo not drawn) [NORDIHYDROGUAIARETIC ACID]
94
